Please go through the items and note down their self-cleavage.
B1: Twister Ribozyme (parent)
chain: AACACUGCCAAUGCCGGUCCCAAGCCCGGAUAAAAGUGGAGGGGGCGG

Variants of: B1
assay notes: self-cleavage, relative activity (ratio to wild type); higher = more cleavage; co-transcriptional

Field: example entries. Status: answers known.
[
  {
    "variant label": "A30C A40C",
    "self-cleavage": 0.103
  },
  {
    "variant label": "C14A C15A",
    "self-cleavage": 0.885
  },
  {
    "variant label": "A1U A32U",
    "self-cleavage": 0.0613
  }
]

Hi, could you look up self-cleavage for each item in my list?
1. U18C G39A
2. C3U G39U
3. U31C G47U
4. C9A G38A

1. 0.111
2. 0.066
3. 1.02
4. 0.393

Reference for the values: the RNAGym collection of RNA variant scans (doi:10.7554/elife.80360)
